Please find below IC50 measurements for IRE1a (Homo sapiens, UniProt O75460), combined from several publications.

Worked examples follow.
compound	val
CC(=O)NC1CCN(c2ccc3c(C=O)c(O)ccc3c2)C1 (centres unmarked)	< 1 µM
O=Cc1c(O)ccc2cc(N3CCN(c4ccccn4)CC3)ccc12	> 1 µM
COCc1cn(-c2ccc3c(C=O)c(O)ccc3c2)nn1	< 1 µM

What value of measured IC50 is listed for `CN1CCC(NC(=O)c2ccc(-c3ccc4c(C=O)c(O)ccc4c3)cc2)CC1` ? > 1 µM

What value of measured IC50 is listed for `COc1cc2c(C)c(CCC(=O)N3CCOCC3)c(=O)oc2c(C=O)c1O` ? < 0.1 µM

What value of measured IC50 is listed for `O=Cc1c(O)ccc2ccc(N3CCC(N4CCOCC4)CC3)cc12` ? > 1 µM

What value of measured IC50 is listed for `Cc1cc(NS(=O)(=O)C2CCC2)c2ccccc2c1Oc1ncccc1-c1ccnc(N[C@@H]2CNC[C@@H](F)C2)n1` ? 0.0044 µM

What value of measured IC50 is listed for `COc1cc(-c2cc(NS(=O)(=O)c3ccccc3Cl)nn2C)cc2cnc(N[C@H]3CC[C@H](N)CC3)nc12` ? 0.05 to 0.1 µM

###

Please find below IC50 measurements for IRE1a (Homo sapiens, UniProt O75460), combined from several publications.

Worked examples follow.
smiles-record	IC50
CCc1cc(-c2ccc(NS(=O)(=O)c3ccccc3C)nc2OC)cc2cnc(N[C@H]3CC[C@H](NC)CC3)nc12	≤ 5 nM
Cn1nc(NC(=O)Cc2cccc(C(F)(F)F)c2)cc1-c1cc2cnc(N[C@H]3CC[C@H](N)CC3)nc2c2ccccc12	> 100 nM
Cc1nc(-c2ccc3c(C=O)c(O)ccc3c2)sc1C(=O)NC1CCNCC1	< 100 nM
COCCOc1cc2c(C)c(CCC(=O)N3CCN(C)CC3)c(=O)oc2c(C=O)c1O	< 100 nM
CCc1cc(-c2cc(NC(=O)Cc3cc(C(F)(F)F)ccc3C(F)(F)F)nn2C)cc2cnc(N[C@H]3CC[C@H](NC(C)=O)CC3)nc12	> 100 nM
CCc1cc(-c2cc(NC(=O)Nc3cccc(C(F)(F)F)c3)nn2C)cc2cnc(N[C@H]3CC[C@H](N)CC3)nc12	≤ 5 nM

Form: Entry = `CCc1cc(-c2sc(NS(=O)(=O)c3ccccc3Cl)nc2C)cc2cnc(N[C@H]3CC[C@H](N)CC3)nc12` | System = IRE1a (Homo sapiens, UniProt O75460) | IC50 = ____ ≤ 5 nM

###

Please find below IC50 measurements for IRE1a (Homo sapiens, UniProt O75460), combined from several publications.

Worked examples follow.
compound	val
CNC(=O)c1ccc(-c2ccc3c(C=O)c(O)ccc3c2)cc1	> 1000 nM
Cc1nc(NS(=O)(=O)c2ccccc2Cl)c(F)cc1/C=C/c1cnc(NC2CCC(N(C)C)CC2)nc1 (stereo not drawn)	≤ 1 nM
O=Cc1c(O)ccc2cc(-c3ccc(C(=O)NC4CCCNC4)cc3)ccc12 (stereo not drawn)	< 100 nM
CCc1cc(-c2ccc(NS(=O)(=O)C3CC3)nc2OC)cc2cnc(N[C@H]3CC[C@H](N)CC3)nc12	5.1 nM

Form: Entry = `COc1cc(O)c(C=O)c2oc(=O)c(CCC(=O)N3CCOCC3)c(C)c12` | System = IRE1a (Homo sapiens, UniProt O75460) | IC50 = ____ < 1000 nM

Form: Entry = `Cc1ccc(F)c(S(=O)(=O)Nc2cc(F)c(-c3nn(C(C)C)c4c3c(N)ncc4[C@H]3CC[C@H](NC[C@@H](C)F)CC3)cc2F)c1` | System = IRE1a (Homo sapiens, UniProt O75460) | IC50 = ____ 0.893 nM

Form: Entry = COc1nc(NS(=O)(=O)c2ccccc2Cl)ccc1-c1nc(C(C)C)n2c(C3=CCC(NC4COC4)CC3)cnc(N)c12 (stereo not drawn) | System = IRE1a (Homo sapiens, UniProt O75460) | IC50 = ____ > 1000 nM

Form: Entry = CC(C)c1nc(-c2ccc(NS(=O)(=O)c3ccccc3F)c(F)c2)c2c(N)ncc(C3=CCC(NC4COC4)CC3)n12 (stereo not drawn) | System = IRE1a (Homo sapiens, UniProt O75460) | IC50 = ____ 150 nM

###

Please find below IC50 measurements for IRE1a (Homo sapiens, UniProt O75460), combined from several publications.

Worked examples follow.
compound	IC50
CC(C)c1nc(-c2ccc(NS(=O)(=O)c3ccccc3Cl)c(F)c2)c2c(N)ncc(C3=CCC(NCCS(C)(=O)=O)CC3)n12 (centres unmarked)	11 nM
NC12CCC(Nc3ncc4cc(-c5ccc(NS(=O)(=O)c6ccccc6Cl)c(F)c5)ccc4n3)(CC1)CC2	≤ 5 nM
Cc1ccc(F)c(S(=O)(=O)Nc2cc(F)c(-c3nn(C(C)C)c4c3c(N)ncc4[C@H]3CC[C@H](NC[C@H](C)F)CC3)cc2F)c1	1.3 nM
CCc1cc(-c2cc(NC(=O)Cc3cc(C(F)(F)F)ccc3C(F)(F)F)nn2C)cc2cnc(N[C@H]3CC[C@H](NC(=O)CN)CC3)nc12	50 to 100 nM

Form: Entry = `CCc1cc(-c2ccc(NS(=O)(=O)c3ccccc3Cl)c(F)c2)cc2cnc(N[C@@H]3CC[C@H](N)[C@H](C)C3)nc12` | System = IRE1a (Homo sapiens, UniProt O75460) | IC50 = ____ < 5 nM

Form: Entry = CNC1CCN(c2ccc3c(C=O)c(O)ccc3c2)C1 (centres unmarked) | System = IRE1a (Homo sapiens, UniProt O75460) | IC50 = ____ > 1000 nM

Form: Entry = NC1CCC(Nc2ncc(CCc3ccc(NS(=O)(=O)c4ccccc4Cl)c(F)c3)cn2)CC1 (centres unmarked) | System = IRE1a (Homo sapiens, UniProt O75460) | IC50 = ____ ≤ 1 nM

Form: Entry = O=Cc1c(O)ccc2cc(-c3ccc(C(=O)NC4CCNC4)s3)ccc12 (centres unmarked) | System = IRE1a (Homo sapiens, UniProt O75460) | IC50 = ____ < 100 nM

Form: Entry = `CC(=O)N1CCN(c2ccc3c(C=O)c(O)ccc3c2)CC1` | System = IRE1a (Homo sapiens, UniProt O75460) | IC50 = ____ < 1000 nM

Form: Entry = `CN(C)C(=O)/C=C/c1ccc2c(C=O)c(O)ccc2c1` | System = IRE1a (Homo sapiens, UniProt O75460) | IC50 = ____ < 100 nM

Form: Entry = `Cn1nc(NC(=O)Cc2cccc(C(F)(F)F)c2)cc1-c1ccc2nc(N[C@H]3CC[C@H](N)CC3)ncc2c1` | System = IRE1a (Homo sapiens, UniProt O75460) | IC50 = ____ 50 to 100 nM

Form: Entry = `CCCc1cc(-c2cc(NS(=O)(=O)c3ccccc3Cl)nn2C)cc2cnc(N[C@H]3CC[C@H](N)CC3)nc12` | System = IRE1a (Homo sapiens, UniProt O75460) | IC50 = ____ ≤ 5 nM

Form: Entry = `CN1CCN(c2ncc(-c3ccc4c(C=O)c(O)ccc4c3)s2)CC1` | System = IRE1a (Homo sapiens, UniProt O75460) | IC50 = ____ < 100 nM

Form: Entry = CN1CCN(C(=O)C2CCN(c3ccc4ccc(O)c(C=O)c4c3)C2)CC1 (centres unmarked) | System = IRE1a (Homo sapiens, UniProt O75460) | IC50 = ____ > 1000 nM

Form: Entry = `N[C@H]1CC[C@H](Nc2ncc(CCc3ccc(NS(=O)(=O)c4ccccc4Cl)nn3)cn2)CC1` | System = IRE1a (Homo sapiens, UniProt O75460) | IC50 = ____ 1 to 5 nM

###

pIC50: −log10 of the molar value.
Please find below pIC50 measurements for IRE1a (Homo sapiens), combined from several publications.

Worked examples follow.
smiles-record	val
CN1CCN(C(=O)c2ccc(Cl)c(-c3ccc4c(C=O)c(O)ccc4c3)c2)CC1	> 6.00
CCc1cc(-c2cc(CC(=O)Nc3ccc(OCCCNC)c(C(F)(F)F)c3)nn2C)cc2cnc(N[C@H]3CC[C@H](N)CC3)nc12	≥ 8.30
COc1cc2c(C)c(CC(=O)NCCO)c(=O)oc2c(C=O)c1O	> 7.00

Shifting focus to the compound that follows.
Form: Entry = `CCc1cc(-c2ccc(NS(=O)(=O)c3ccccc3Cl)c(F)c2)cc2cnc(N[C@@H]3CC[C@H](N)C3)nc12` | System = IRE1a (Homo sapiens) | pIC50 = ____ ≥ 8.30

###

Please find below pIC50 measurements for IRE1a (Homo sapiens, UniProt O75460), combined from several publications.
pIC50: −log10 of the molar value.

Worked examples follow.
molecule	pIC50
CN(C)C1CCC(Nc2ncc(C=Cc3cnc(NS(=O)(=O)c4ccccc4Cl)nc3)cn2)CC1 (centres unmarked)	≥ 9.00
Cc1nc(NS(=O)(=O)c2ccccc2Cl)c(F)cc1CCc1cnc(NC2CCC(N(C)C)CC2)nc1 (centres unmarked)	8.30 to 9.00
CCc1cc(-c2ccc(NS(=O)(=O)c3ccccc3Cl)nc2OC)cc2cnc(N[C@H]3CC[C@H](NC)CC3)nc12	≥ 8.30
COCCNC(=O)c1ccc(-c2ccc3c(C=O)c(O)ccc3c2)cc1	< 6.00
CN(C)C(=O)c1ccc(-c2ccc3c(C=O)c(O)ccc3c2)s1	> 6.00
CN(C)C(=O)c1ccc(-c2ccc3c(C=O)c(O)ccc3c2)o1	> 7.00
O=Cc1c(O)ccc2cc(N3CCN(Cc4ccccc4)CC3)ccc12	< 6.00
CCc1cc(-c2ccc(NS(=O)(=O)c3ccccc3F)cc2C)cc2cnc(N[C@H]3CC[C@H](N)CC3)nc12	≥ 8.30

Form: Entry = `COCOCCNC(=O)Cc1c(C)c2cc(OC)c(O)c(C=O)c2oc1=O` | System = IRE1a (Homo sapiens, UniProt O75460) | pIC50 = ____ > 6.00

Form: Entry = O=Cc1c(O)ccc2cc(N3CCC(N4CCCCC4)C3)ccc12 (centres unmarked) | System = IRE1a (Homo sapiens, UniProt O75460) | pIC50 = ____ > 6.00

Form: Entry = O=Cc1c(O)ccc2cc(N3CCCC(NCc4ccccn4)C3)ccc12 (centres unmarked) | System = IRE1a (Homo sapiens, UniProt O75460) | pIC50 = ____ < 6.00

Form: Entry = CCCc1nc(NC2CCC(N)CC2)ncc1/C=C/c1ccc(NS(=O)(=O)c2ccccc2Cl)cc1 (centres unmarked) | System = IRE1a (Homo sapiens, UniProt O75460) | pIC50 = ____ 8.30 to 9.00

Form: Entry = `CCc1cc(-c2cc(NC(=O)Cc3cccc(C(F)(F)F)c3)nn2C)cc2cnc(N[C@H]3CC[C@H](N(C)CCOC)CC3)nc12` | System = IRE1a (Homo sapiens, UniProt O75460) | pIC50 = ____ < 7.00

Form: Entry = `CS(=O)(=O)N1CCN(c2ccc3c(C=O)c(O)ccc3c2)CC1` | System = IRE1a (Homo sapiens, UniProt O75460) | pIC50 = ____ < 6.00

Form: Entry = `CCc1cc(-c2cc(NC(=O)Cc3cccc(C#N)c3)nn2C)cc2cnc(N[C@H]3CC[C@H](N)CC3)nc12` | System = IRE1a (Homo sapiens, UniProt O75460) | pIC50 = ____ 7.30 to 8.30

Form: Entry = `CCc1cc(-c2ncc(NS(=O)(=O)c3ccccc3Cl)nc2OC)cc2cnc(N[C@H]3CC[C@H](N)CC3)nc12` | System = IRE1a (Homo sapiens, UniProt O75460) | pIC50 = ____ ≥ 8.30

Form: Entry = `CN1CCN(C2CCN(c3ccc4c(C=O)c(O)ccc4c3)CC2)CC1` | System = IRE1a (Homo sapiens, UniProt O75460) | pIC50 = ____ > 8.00
